FYI, the data here is from paper PMC10689823.

Overview of recorded GI50 for various compounds
Test system: Jurkat cells
Assay: Cell viability assay (CellTiter-Glo) in Jurkat cells
Assay type: cell-based
Settings: Homo sapiens; Jurkat cells; 72 h
Please reply with the bare figure in nM and do not write the unit itself.

Here are 2 compounds together with their reported answers.
INSERT INTO measurements (compound, value_unit, endpoint_value) VALUES
  ('Cc1sc2c(c1C)C(c1ccc(Cl)cc1)=NC(CC(=O)NCCOCCOCCOCCOc1c(Br)cc(C=C3C(=O)Nc4ccc(Br)cc43)cc1Br)c1nnc(C)n1-2 (stereo not drawn)', 'nM', 190),
  ('Cc1sc2c(c1C)C(c1ccc(Cl)cc1)=N[C@@H](CC(=O)NCCOCCOCCOCCOCCNC(=O)COc1c(Br)cc(/C=C3\C(=O)Nc4ccc(Br)cc43)cc1Br)c1nnc(C)n1-2', 'nM', 90);

# ---- query compound ----
Record COCCCN(C(=O)CCl)C(C(=O)NCc1ccccc1)c1ccc(Cl)c(Cl)c1 (stereo not drawn) [Compound 15, reference compound] . Reported GI50: 1700
